Target: Cytochrome P450 2C19 (Homo sapiens) (UniProt P33261)
Sequence (P33261 whole entry, looked up): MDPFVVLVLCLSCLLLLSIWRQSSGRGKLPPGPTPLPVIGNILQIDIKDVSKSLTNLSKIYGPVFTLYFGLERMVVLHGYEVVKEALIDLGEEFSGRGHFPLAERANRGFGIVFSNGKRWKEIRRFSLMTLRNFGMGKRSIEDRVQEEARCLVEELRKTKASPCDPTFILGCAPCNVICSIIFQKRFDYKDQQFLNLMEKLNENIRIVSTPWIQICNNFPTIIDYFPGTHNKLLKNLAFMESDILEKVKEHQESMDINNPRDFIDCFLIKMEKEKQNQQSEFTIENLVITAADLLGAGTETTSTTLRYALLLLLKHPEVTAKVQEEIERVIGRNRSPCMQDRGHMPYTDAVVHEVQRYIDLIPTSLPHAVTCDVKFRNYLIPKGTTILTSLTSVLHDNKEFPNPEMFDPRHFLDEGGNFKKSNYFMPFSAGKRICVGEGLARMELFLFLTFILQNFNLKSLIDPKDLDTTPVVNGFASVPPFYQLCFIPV
Test: Cytochrome panel assay with activity outcomes
Settings: recombinant CYP, pro-luciferin dealkylation, luminescence, p450-cyp2c19; series mostly up to 57.1 µM
In all, about 16,000 compounds went through this assay and about 5,800 (36%) were called active. Roughly 23% stayed inconclusive and do not appear here. Calls follow the shape of the dose curve; as a rule, active = well fitted curve in the direction sought with a large enough effect; inconclusive = small, poorly fitted or top-dose-only effect, or effect the other way; inactive = no such curve, though single readings can be large or run the other way. The list shows a part of the results.
Pick one and only one: True (active), False (inactive)

Compound	Target	Category
COc1ccc(C(=O)N/N=C2/C(=O)c3c(C)cc(C)cc3CC2(C)C)cc1	Cytochrome P450 2C19 (Homo sapiens) (UniProt P33261)	True
O=C1c2cccc3cccc(c23)C(=O)N1CC1CCN(CC(O)COc2ccc3ccccc3c2)CC1 (stereo not given)	Cytochrome P450 2C19 (Homo sapiens) (UniProt P33261)	True
O=C(c1ccc(S(=O)(=O)N2CCCCCC2)cc1)N1CCC(CN2C(=O)c3cccc4cccc(c34)C2=O)CC1	Cytochrome P450 2C19 (Homo sapiens) (UniProt P33261)	False
O=C1SC(c2ccccc2)=C/C1=C\N1CCCCC1	Cytochrome P450 2C19 (Homo sapiens) (UniProt P33261)	True

Kindly consider the entry below.
### Prompt Tell me the recorded outcome of this test for `CN(CCO)c1nc(N)c2c(N)nc3c(c2c1C#N)CC(=O)N3C1CCCC1` .
### Response False
